Biological target: CA-MPK6 (constitutively active MPK6) (Arabidopsis thaliana, UniProt Q39026, D218G/E222A)
Sequence (Q39026 29-305 D218G/E222A limits assumed): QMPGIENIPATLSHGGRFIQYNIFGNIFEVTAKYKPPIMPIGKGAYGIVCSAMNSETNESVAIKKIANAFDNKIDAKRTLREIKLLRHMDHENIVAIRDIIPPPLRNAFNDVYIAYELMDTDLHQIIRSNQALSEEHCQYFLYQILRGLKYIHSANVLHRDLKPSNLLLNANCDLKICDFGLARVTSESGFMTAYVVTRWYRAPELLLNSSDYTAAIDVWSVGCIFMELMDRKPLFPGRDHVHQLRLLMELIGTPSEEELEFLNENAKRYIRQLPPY
Assay: biochemical
property.measured: pKd
Scale: negative log10 of molar concentration, which is what pKd denotes.

Quickly give me recorded pKd for O=P(O)(O)C(O)c1ccc2ccccc2c1 (stereo not shown) [compound 2]
4.24
